study-target: TLR8 (Homo sapiens, UniProt Q9NR97)
Construct: Human peripheral blood mononuclear cells (PBMCs) consist of lymphocytes, monocytes and dendritic cells that express TLR7, TLR8 and TLR9; endogenous in cells
Sequence (Q9NR97 27-1041): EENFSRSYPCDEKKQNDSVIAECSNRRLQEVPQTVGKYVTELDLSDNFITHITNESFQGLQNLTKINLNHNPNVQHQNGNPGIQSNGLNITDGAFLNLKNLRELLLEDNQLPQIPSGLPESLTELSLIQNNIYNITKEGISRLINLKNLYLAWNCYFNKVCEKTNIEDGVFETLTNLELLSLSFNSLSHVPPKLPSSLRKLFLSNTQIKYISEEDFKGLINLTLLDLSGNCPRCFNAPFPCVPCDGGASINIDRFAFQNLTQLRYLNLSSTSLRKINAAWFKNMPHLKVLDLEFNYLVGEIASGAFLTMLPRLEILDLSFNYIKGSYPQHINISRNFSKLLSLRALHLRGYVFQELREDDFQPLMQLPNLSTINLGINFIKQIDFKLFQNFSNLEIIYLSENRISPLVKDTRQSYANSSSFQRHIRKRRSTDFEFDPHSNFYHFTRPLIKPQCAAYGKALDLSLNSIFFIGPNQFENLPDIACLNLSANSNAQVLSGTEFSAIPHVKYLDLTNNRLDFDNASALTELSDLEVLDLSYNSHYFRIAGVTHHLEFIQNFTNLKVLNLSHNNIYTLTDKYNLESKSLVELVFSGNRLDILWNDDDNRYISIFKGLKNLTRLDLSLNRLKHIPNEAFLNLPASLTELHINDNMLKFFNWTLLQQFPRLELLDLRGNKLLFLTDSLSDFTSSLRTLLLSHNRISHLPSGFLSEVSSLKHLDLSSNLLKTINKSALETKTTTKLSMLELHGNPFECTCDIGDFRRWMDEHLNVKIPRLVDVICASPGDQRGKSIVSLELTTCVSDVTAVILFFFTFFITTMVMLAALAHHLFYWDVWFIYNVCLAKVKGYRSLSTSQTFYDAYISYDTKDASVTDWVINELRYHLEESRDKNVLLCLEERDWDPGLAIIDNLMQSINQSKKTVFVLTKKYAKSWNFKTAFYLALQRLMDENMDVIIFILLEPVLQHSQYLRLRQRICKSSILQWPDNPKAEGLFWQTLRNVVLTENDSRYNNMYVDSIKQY
experiment-notes: TLR8 human PBMC cell-based assay (antagonist, Compound A stimulated cytokine release)
settings: human PBMCs; TLR8 agonist Compound A 800 nM, 6 hours; cytokines (TNFa and IL 12p40) in supernatant; read-out: TLR-8 EC50
Listed compounds paired with reported pEC50
pEC50 is defined as minus the log10 of a concentration measured in mol/L.

Below, 10 compounds whose answers are already recorded.
Cc1cc(-c2[nH]c3cc(C(=O)N4CCC[C@H]4CN(C)C)sc3c2C(C)C)cn2ncnc12 ... 7.67
COc1cc(-c2[nH]c3cc(-c4cnc5c(c4)CNCC5)sc3c2C(C)C)cn2ncnc12 ... 9.52
Cc1cc(-c2[nH]c3cc(C4CCN(CCS(C)(=O)=O)CC4)sc3c2C(C)C)cn2ncnc12 ... 8.49
Cc1cc(-c2[nH]c3cc(-c4nnc(C5CCNCC5)s4)sc3c2C(C)C)cn2ncnc12 ... 8.27
Cc1cc(-c2[nH]c3cc(C(=O)N(C)[C@H]4CCNC4)sc3c2C(C)C)cc(C)n1 ... 7.17
Cc1cc(-c2[nH]c3cc(C(=O)N(C)C4CCN(C5COC5)CC4)sc3c2C(C)C)cn2ncnc12 ... 7.97
Cc1cc(-c2[nH]c3cc(-c4ccc(N5CCN(C)CC5)c(F)c4)sc3c2C(C)C)cn2ncnc12 ... 8.31
Cc1cc(-c2[nH]c3cc(-c4nc5ccccc5[nH]4)sc3c2C(C)C)cn2ncnc12 ... 6.94
Cc1cc(-c2[nH]c3cc(C4CCC5(CCNC5)C4)sc3c2C(C)C)cn2ncnc12 (stereo not shown) ... 7.98
Cc1cc(-c2[nH]c3cc(-c4ccc(N5CCNCC5)nc4)sc3c2C(C)C)cn2ncnc12 ... 8.64

Lab note: next compound to report on.
Bench note: what pEC50 did "Cc1cc(-c2[nH]c3cc(C4CCC5(CC4)CN(CC(N)=O)C5)sc3c2C(C)C)cn2ncnc12" show? 9.00
